system: GalNAc(b1-3)GalNAc
experiment summary: glycan array binding signal (z-score within array); higher = stronger binding
condition summary: glycan notation: IUPAC condensed, linker removed
The entries come from a sample that favours the strongest signals as a whole.
measured property: glycan array binding signal (z-score)

{"binder": "MRCL (Homo sapiens), NP_872425.1 (protein) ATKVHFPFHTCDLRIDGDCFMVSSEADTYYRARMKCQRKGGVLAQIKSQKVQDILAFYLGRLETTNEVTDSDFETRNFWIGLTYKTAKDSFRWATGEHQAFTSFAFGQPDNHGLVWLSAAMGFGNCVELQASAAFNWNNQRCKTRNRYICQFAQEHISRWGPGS", "measured property": "glycan array binding signal (z-score)", "obs value": -0.074}

// next item, glycan array binding signal (z-score) requested
Request: State its glycan array binding signal (z-score) for this binder: PpFlo3 (Pichia pastoris) (protein) MGSSHHHHHHSSGLVPRGSHMQESGNGTTSDTAYACDIGATPFDGFNATIYQYQASDDNSIQDPVFMSTGYLQRNQLHSTTGVTNPGFNIFTAGVATTTLYGIPNVNYQNMLLELKGYFRADASGNYGLSLRNIDDSAILFFGRETAFECCNENLIPLDEAPTDYSLFTIKEGEASTNPDSYTYTQYLEAGRYYPVRTFFANIRTRAVFNFTMTLPDGSELTDFQNYIFQFGALNQ
Result: 5.1
